tested on: MS2 coat protein; test: apparent KD of MS2 coat protein; designed switch direction (-1 OFF switch, 1 ON switch): 1; higher = weaker reporter binding; details: input ligand: microRNA oligo, concentration not stated
measurement.name: apparent KD of MS2 coat protein (nM)
Write the answer as a number in nM, unit excluded.

Examples with answers:
[[record]]
input_sequence = "GGCGAACAGGCCGACAUGAGGAUCACCCAUGUGGCCUCAUGUCAGGAUAUCGGGAAGGAGGAAACCGAGAAGGGACGGUGAGCC [AK SSNG3-V2-44] (Eterna round: R96, puzzle: Same State NG 3)"
measurement_name = "apparent KD of MS2 coat protein"
measured_number = 5.6

[[record]]
input_sequence = "GCCGUAUAAACAUGAGGAUCACCCAUGUGCGCGAGAGCGGAUGAGGAUAUCGAUGGGUUUCCCGUCGAGAAGGCGUGGGUCGGC [JL SSNG3 3.97] (Eterna round: R96, puzzle: Same State NG 3)"
measurement_name = "apparent KD of MS2 coat protein"
measured_number = 41.1

[[record]]
input_sequence = "ACAUGAGAGAUAGGAUAUCGUGUACCUACAUGUGACAUGAGGAUCACCCAUGUGGUAAGUAUGAGCGAGAAGGAUCCGAUAUGU [salish99_SSNG2_r04_1001] (Eterna round: R96, puzzle: Same State NG 2)"
measurement_name = "apparent KD of MS2 coat protein"
measured_number = 38.6

[[record]]
input_sequence = "UGCUAGGAUAUCUUGAGGAUCACCCAGGAGAAGGAGCCAAGCUAGGAUAUCCUGAGGAUCACCCAGGAGAAGGAGCACAUACUC [pwkr ssNG3 DX 2xF5 +2xFMN.13] (Eterna round: R96, puzzle: Same State NG 3)"
measurement_name = "apparent KD of MS2 coat protein"
measured_number = 59.6


Consider the additional sequence presented here.
Prompt: Specify reported apparent KD of MS2 coat protein for the sequence shown: UUUCCAUAGAUAGGAUAUCAGUUUACAUGAGGAUCACCCAUGUUCUCUUUGGUUAUAAUUAUAUCUGAGAAGGAUCUUGAUGAA [JR_SSNG2_Sub002] (Eterna round: R96, puzzle: Same State NG 2)
Completion: 20.4
